Catalogue of LD50 readings, one per entry.
- method-description: acute toxicity, single oral administration to mice
- condition-notes: mouse, in vivo; single oral administration (p.o.) to mice
State the answer as a number, implicitly in mg/kg.

1. CC[C@H](/C=C/[C@@H](C)[C@H]1CC[C@H]2[C@@H]3CC=C4C[C@@H](OP(=O)([O-])OCC[N+](C)(C)C)CC[C@]4(C)[C@H]3CC[C@]12C)C(C)C
5000

Q: Report LD50, nothing else, for this compound: CC[C@H](CC[C@@H](C)[C@H]1CC[C@H]2[C@@H]3CC=C4C[C@@H](OP(=O)([O-])OCC[N+](C)(C)C)CC[C@]4(C)[C@H]3CC[C@]12C)C(C)C
Result: 5000

Q: Report LD50, nothing else, for this compound: CC[C@H](CC[C@@H](C)[C@H]1CC[C@H]2[C@@H]3CC[C@H]4C[C@@H](OP(=O)([O-])OCC[N+](C)(C)C)CC[C@]4(C)[C@H]3CC[C@]12C)C(C)C
Result: 4000

Q: Report LD50, nothing else, for this compound: CC(C)CCC[C@@H](C)[C@H]1CC[C@H]2[C@@H]3CC[C@H]4C[C@@H](OP(=O)([O-])OCC[N+](C)(C)C)CC[C@]4(C)[C@H]3CC[C@]12C
Result: 5000
